details: 313.15 K; 40000 kPa; Liquid; Vibrating tube method
MEASURED_PARAMETER: mass density (kg/m3)

>>> recorded_measurement("CCCOCCC")
766.68
>>> recorded_measurement("CC(C)OC(C)C")
746.98
>>> recorded_measurement("CCCCOCC")
768.36
>>> recorded_measurement("CCOC(C)(C)C")
762.03
>>> recorded_measurement("CC(C)CCOCCC(C)C")
790.53
>>> recorded_measurement("COC(C)(C)C")
761.71
>>> recorded_measurement("CCCCCOCCCCC")
797.15
>>> recorded_measurement("CCCCOC")
764.74

----------
conditions: 333.15 K; 60000 kPa; Liquid; Vibrating tube method
MEASURED_PARAMETER: mass density (kg/m3)

>>> recorded_measurement("CCCCCOCCCCC")
796.72
>>> recorded_measurement("CC(C)CCOCCC(C)C")
790.76
>>> recorded_measurement("CC(C)OC(C)C")
748.24
>>> recorded_measurement("CCCCOC")
764.71
>>> recorded_measurement("CCCOCCC")
766.84
>>> recorded_measurement("CCOC(C)(C)C")
762.77
>>> recorded_measurement("CCCCOCC")
768.41

----------
settings: 303.15 K; 50000 kPa; Liquid; Vibrating tube method
MEASURED_PARAMETER: mass density (kg/m3)

>>> recorded_measurement("CCCCOC")
780.03
>>> recorded_measurement("CCCOCCC")
781.64
>>> recorded_measurement("COC(C)(C)C")
777.36
>>> recorded_measurement("CC(C)CCOCCC(C)C")
803.4
>>> recorded_measurement("CCCCCOCCCCC")
809.78
>>> recorded_measurement("CCOC(C)(C)C")
777.57
>>> recorded_measurement("CC(C)OC(C)C")
763
>>> recorded_measurement("CCCCOCC")
783.18

----------
settings: 283.15 K; 45000 kPa; Liquid; Vibrating tube method
MEASURED_PARAMETER: mass density (kg/m3)

>>> recorded_measurement("CCOC(C)(C)C")
789.49
>>> recorded_measurement("CCCOCCC")
793.67
>>> recorded_measurement("CCCCOC")
792.18
>>> recorded_measurement("CC(C)OC(C)C")
774.59
>>> recorded_measurement("CC(C)CCOCCC(C)C")
813.52
>>> recorded_measurement("COC(C)(C)C")
789.45
>>> recorded_measurement("CCCCCOCCCCC")
820.12
>>> recorded_measurement("CCCCOCC")
794.97

----------
details: 298.15 K; 60000 kPa; Liquid; Vibrating tube method
MEASURED_PARAMETER: mass density (kg/m3)

>>> recorded_measurement("CC(C)CCOCCC(C)C")
812.33
>>> recorded_measurement("CC(C)OC(C)C")
773.75
>>> recorded_measurement("CCOC(C)(C)C")
788.21
>>> recorded_measurement("CCCCOC")
790.51
>>> recorded_measurement("COC(C)(C)C")
788.1
>>> recorded_measurement("CCCOCCC")
791.97
>>> recorded_measurement("CCCCCOCCCCC")
818.54
>>> recorded_measurement("CCCCOCC")
793.36

----------
conditions: 318.15 K; 45000 kPa; Liquid; Vibrating tube method
MEASURED_PARAMETER: mass density (kg/m3)

>>> recorded_measurement("CCOC(C)(C)C")
762.23
>>> recorded_measurement("CCCOCCC")
766.72
>>> recorded_measurement("CCCCOC")
764.73
>>> recorded_measurement("CC(C)OC(C)C")
747.34
>>> recorded_measurement("CC(C)CCOCCC(C)C")
790.57
>>> recorded_measurement("CCCCOCC")
768.4
>>> recorded_measurement("COC(C)(C)C")
761.86
>>> recorded_measurement("CCCCCOCCCCC")
797.02
